- System: HL-60(TB) leukemia
- assay_overview: NCI tumour cell line growth inhibition, 48 h
Where a SMILES comes first, the peptide text is derived from it. The star is where a group is joined. Fmoc = O=C(OCC1c2ccccc2-c2ccccc21)*; Boc = CC(C)(C)OC(=O)*
Field: TGI. Provide a value for each of the molecules that follow.

Request: Provide value of TGI for this record tested with HL-60(TB) leukemia: COc1cc2c3c(c1OC)-c1c(ccc4c1OCO4)CC3(C#N)N(C(=O)c1ccccc1)CC2 (centres undefined)
Response: > 100 µM

Request: Provide value of TGI for this record tested with HL-60(TB) leukemia: CCOC(=O)Cc1nc2sc(S(N)(=O)=O)nn2c1Br
Response: > 100 µM

Request: Provide value of TGI for this record tested with HL-60(TB) leukemia: CC(C)(C)OC(=O)NCCCCC(NC(=O)OCC1c2ccccc2-c2ccccc21)C(=O)N1CCCC1C(=O)NCC(N)=O (stereo not drawn) (Fmoc-Lys(Boc)-Pro-Gly-NH2; configuration not given here)
Response: > 100 µM

Request: Provide value of TGI for this record tested with HL-60(TB) leukemia: CC(C)(C)c1cc2c3c(c1)C(C(F)(F)F)(C(F)(F)F)O[Te]3(C)OC2(C(F)(F)F)C(F)(F)F
Response: > 100 µM

Request: Provide value of TGI for this record tested with HL-60(TB) leukemia: O=C(/C=C/c1cc(O)c(O)cc1O)OCCc1ccccc1
Response: 3.73 µM

Request: Provide value of TGI for this record tested with HL-60(TB) leukemia: COc1ccc(OC)c(CC2CCc3nc(N)nc(N)c3C2)c1 (centres undefined)
Response: > 100 µM

Request: Provide value of TGI for this record tested with HL-60(TB) leukemia: CCn1cc(C(=O)O)c(=O)c2cc3c(cc21)S(=O)(=O)CC3
Response: > 100 µM

Request: Provide value of TGI for this record tested with HL-60(TB) leukemia: Cn1ccnc1C(=O)/C=C/c1ccccc1
Response: 7.73 µM

Request: Provide value of TGI for this record tested with HL-60(TB) leukemia: Cc1cc(Cc2c(F)c(F)c(C(c3cc(C)no3)c3c(F)c(F)c(F)c(F)c3F)c(F)c2F)on1 (centres undefined)
Response: > 39.6 µM

---

- Tested on: T-47D breast
- assay_overview: NCI tumour cell line growth inhibition, 48 h
Where a SMILES comes first, the peptide text is derived from it. The star is where a group is joined. Fmoc = O=C(OCC1c2ccccc2-c2ccccc21)*; Boc = CC(C)(C)OC(=O)*
quantity_name: TGI

Request: Need TGI, item COc1ccc(Cn2cc3c(c2-c2ccc(OC)cc2)CCc2cnoc2-3)cc1
Response: > 100 µM

Request: Need TGI, item CC(=O)O[C@@H]1C2=C(C)C=C(O2)[C@H]2O[C@]2(C)C[C@H]2C=C(C(=O)O2)[C@H](OC(C)=O)CC1[C@@]1(C)CO1 (stereo partly drawn)
Response: 39.7 µM

Request: Need TGI, item O=C1c2ccccc2C(=O)c2c1ccc(C1C(=O)c3ccccc3C1=O)c2-c1c(C2C(=O)c3ccccc3C2=O)ccc2c1C(=O)c1ccccc1C2=O
Response: > 100 µM

Request: Need TGI, item Cn1/c(=N\S(=O)(=O)c2ccccc2)n(S(=O)(=O)c2ccccc2)c2ccccc21
Response: > 100 µM

Request: Need TGI, item COc1cc(OC)c(/C=C/c2cnc3ccccc3n2)c(OC)c1
Response: > 10 µM

Request: Need TGI, item CC(C)(C)OC(=O)NCCCCC(NC(=O)OCC1c2ccccc2-c2ccccc21)C(=O)N1CCCC1C(=O)NCC(N)=O (stereo not drawn) (Fmoc-Lys(Boc)-Pro-Gly-NH2; configuration not given here)
Response: > 100 µM

Request: Need TGI, item CCOC(=O)NC(NC1=NCCS1)(C(=O)OCC)C(F)(F)F (stereo not drawn)
Response: > 100 µM

Request: Need TGI, item COc1ccc(C(SCCO)(c2ccccc2)c2ccccc2)cc1
Response: 27 µM
